Ref: the supplement of paper PMC10307832

- Tested on: COR-L 105
- PROTOCOL_DESCRIPTION: relative viability (nuclei count vs DMSO), 5 days (fraction); higher = more cells survive
- PARTICULARS: first compound 0.1265 µM
Kindly state relative viability for each of the entries shown.

Item: O=C(O)c1ccc(-c2c[nH]c3ncc(-c4ccccc4)cc23)cc1C1CCCC1 + Nc1ncn([C@H]2C[C@H](O)[C@@H](CO)O2)c(=O)n1 [Decitabine] (partner 2 µM) | relative viability: 0.62

Item: O=C(O)c1ccc(-c2c[nH]c3ncc(-c4ccccc4)cc23)cc1C1CCCC1 + Cc1cc(Nc2cc(N3CCN(C)CC3)nc(Sc3ccc(NC(=O)C4CC4)cc3)n2)n[nH]1 [Tozasertib] (partner 0.1 µM) | relative viability: 0.36

Item: O=C(O)c1ccc(-c2c[nH]c3ncc(-c4ccccc4)cc23)cc1C1CCCC1 + Cc1nc(Nc2ncc(C(=O)Nc3c(C)cccc3Cl)s2)cc(N2CCN(CCO)CC2)n1 [Dasatinib] (partner 0.075 µM) | relative viability: 0.376

Item: O=C(O)c1ccc(-c2c[nH]c3ncc(-c4ccccc4)cc23)cc1C1CCCC1 + COc1cc2c(Oc3ccc(NC(=O)C4(C(=O)Nc5ccc(F)cc5)CC4)cc3F)ccnc2cc1OCCCN1CCOCC1 [Foretinib] (partner 0.25 µM) | relative viability: 1.43

Item: O=C(O)c1ccc(-c2c[nH]c3ncc(-c4ccccc4)cc23)cc1C1CCCC1 + CS(=O)(=O)N1CCN(Cc2cc3nc(-c4cccc5[nH]ncc45)nc(N4CCOCC4)c3s2)CC1 [Pictilisib] (partner 1 µM) | relative viability: 0.429
